# Test system: LOX IMVI melanoma
# EXPERIMENT_NOTES: NCI tumour cell line growth inhibition, 48 h
MEASURED_ENDPOINT: GI50

**Query** Let me know recorded GI50 for `COc1ccc2c(c1)[n+]([O-])c(C#N)c(NC(=O)c1cccs1)[n+]2[O-]` , thanks.
**Result** > 100000 nM

**Query** Let me know recorded GI50 for N#CC1=C(N)Oc2c(ccc3ccccc23)C1c1cccs1 (stereo not given) , thanks.
**Result** 79.8 nM

**Query** Let me know recorded GI50 for `C[n+]1c2ccccc2c(Nc2ccc(N3CCCCC3)cc2)c2[nH]c3ccccc3c21` , thanks.
**Result** 144 nM

**Query** Let me know recorded GI50 for `Oc1cccc(-c2nc(-c3n[nH]c(=S)n3-c3ccccc3)cc3c2[nH]c2ccccc23)c1` , thanks.
**Result** 1800 nM

**Query** Let me know recorded GI50 for CCC(=O)OC1CCC2C3CCC(=O)OC3C(C)(CCC(=O)O)CC12C (stereo not given) , thanks.
**Result** 3870 nM

====

# Test system: NCI-H226 lung
# EXPERIMENT_NOTES: NCI tumour cell line growth inhibition, 48 h
TGI listing for selected molecules.

Example molecules with recorded TGI:
O=C(O)CCCNS(=O)(=O)c1ccccc1    > 100 µM
C/C=C/[C@@H](C(=O)OC)N1C(=O)c2ccccc2[C@H]1O    > 100 µM
CN1CCN(C(=S)N(C(=O)c2ccco2)C2CCCCC2)CC1    > 100 µM

**Query** Let me know recorded TGI for `CCCNC(=S)N=Nc1c(O)[nH]c2ccccc12` , thanks.
**Result** > 100 µM

**Query** Let me know recorded TGI for COC(=O)C1=C(C(=O)OC)C2(CCCCCC2=O)OC1=O (configuration not stated) , thanks.
**Result** > 100 µM

**Query** Let me know recorded TGI for CC1(C)c2ccccc2C(C)(C)C(C(=O)Nc2ccccc2)C1C(=O)O (configuration not stated) , thanks.
**Result** > 100 µM

**Query** Let me know recorded TGI for CC(=O)C1C(=O)C(=O)N(c2ccc(Cl)c(Cl)c2)C1=O (configuration not stated) , thanks.
**Result** > 100 µM

====

# System: DU-145 prostate
# EXPERIMENT_NOTES: NCI tumour cell line growth inhibition, 48 h
TGI listing for selected compounds.

Example compounds with recorded TGI:
COC(=O)C(Cc1ccc2c(c1)CCCC2)Cc1cc2c(cc1C(O)OC)CCC2 (stereo not given)    > 100 µM
Cc1nn(C(=O)c2ccccc2O)c2c1C(c1ccco1)SC(N)=N2 (stereo not given)    > 10 µM
O=c1c2ccc(Cl)cc2oc2c(CNc3ccc(S(=O)(=O)Nc4nccs4)cc3)cccc12    > 100 µM
O=Cc1cn(Cc2ccc(Cl)cc2)c2ccccc12    > 100 µM

**Query** Let me know recorded TGI for `O=C(Nc1ccc(Cl)cc1)c1cc2c(cc1Cl)Sc1nccn1S2(=O)=O` , thanks.
**Result** > 100 µM

====

# System: COLO 205 colon
# EXPERIMENT_NOTES: NCI tumour cell line growth inhibition, 48 h; in the data active = GI50 below about 0.43 µM; inactive = the rest
Response enum: active, inactive

Take a look at these entries with their results.
O=c1cc(NCC(O)CN2CCOCC2)n(Cc2ccccc2)c(=O)n1Cc1ccccc1 (stereo not drawn)    inactive
C[n+]1c2ccccc2c(Nc2ccc(N3CCCCC3)cc2)c2[nH]c3ccccc3c21    active

Now let's try a different one.
**Query** For `Cc1cc(Nc2ccc3c(c2)OCO3)c2cc3c(cc2n1)OCO3` , what call appears in the results of this test?
**Result** inactive

====

# System: A549 NSCLC
# EXPERIMENT_NOTES: NCI tumour cell line growth inhibition, 48 h
TGI listing for selected compounds.

CCOC(=O)c1c(SCc2ccccc2)nc2c3ccccc3ccn12    > 100 µM
CN1c2ccccc2NC(CC(=O)O)C2CC=CN21 (stereo not drawn)    > 100 µM
C=CCOC(=O)C[C@H](NC(=O)[C@H](Cc1ccc(O)cc1)NCC(F)(F)F)C(=O)OCC=C    > 100 µM
CCOC(=O)/C(=C\NCc1ccc2c(c1)OCO2)c1nc2ccccc2[nH]1    > 100 µM
Cc1ccccc1N(CC(=O)O)S(=O)(=O)c1ccccc1    > 100 µM
O=[N+]([O-])c1ccc(-c2noc(-c3ccccc3)c2C2=NCCN2)cc1    > 100 µM
CC(CC(=O)O)(CC(=O)O)c1ccccc1    > 100 µM
NS(=O)(=O)c1nnc(NS(=O)(=O)c2ccc(F)cc2)s1    > 100 µM

**Query** Let me know recorded TGI for `COc1ccc(N2CCN(C(=O)c3ccc(C(F)(F)F)nc3Nc3cc(Cl)ccc3C)CC2)cc1` , thanks.
**Result** 27.7 µM

**Query** Let me know recorded TGI for O=C1C(Cl)N(c2ccc(Cl)cc2Cl)C1c1c[nH]c2ccccc12 (stereo not drawn) , thanks.
**Result** > 100 µM

**Query** Let me know recorded TGI for `[Cl-].[Nd+3].[O-]/N=C(\c1ccccc1)c1ccccn1.[O-]/N=C(\c1ccccc1)c1ccccn1.[O-]/N=C(\c1ccccc1)c1ccccn1` , thanks.
**Result** > 100 µM

====

# System: SK-MEL-28 melanoma
# EXPERIMENT_NOTES: NCI tumour cell line growth inhibition, 48 h; in the data active = GI50 below about 0.43 µM; inactive = the rest
Response enum: active, inactive

Take a look at these entries with their results.
O=S(=O)(Nc1ccc(Cl)cc1)c1ccc(-c2cnc(C3CC3)o2)cc1    inactive
O=CN/N=C/c1ccc(Cl)c([N+](=O)[O-])c1    inactive

**Query** For `O=C1N[C@@H]2[C@@H](O)[C@@H](O)[C@H](O)C[C@H]2c2cc3c(c(O)c21)OCO3` , what call appears in the results of this test?
**Result** active

====

# Tested on: NCI/ADR-RES ovarian
# EXPERIMENT_NOTES: NCI tumour cell line growth inhibition, 48 h
TGI listing for selected molecules.
Could you give me the number in µM? Just the number is fine.

Example molecules with recorded TGI:
CCOC(=O)/C=C\c1c(Cl)n(-c2ccccc2)c(=O)n(-c2ccccc2)c1=O    72.7
CN(C)CCCNCc1ccc(-c2ccc(F)c(Cl)c2)o1    33.4

Query molecule follows.
**Query** Let me know recorded TGI for `CC1=C2C(=O)c3ccccc3C(=O)[C@H]2C[C@@H](N2CCCC2=O)O1` , thanks.
**Result** 97

====

# System: HS 578T breast
# EXPERIMENT_NOTES: NCI tumour cell line growth inhibition, 48 h
MEASURED_ENDPOINT: TGI

Example compounds with recorded TGI:
C=C1C(=O)O[C@H]2[C@H]1CC/C(COC(=O)CCCC(=O)OC/C1=C/CC[C@@]3(C)O[C@H]3[C@H]3OC(=O)C(=C)[C@@H]3CC1)=C\CC[C@@]1(C)O[C@@H]21    > 100 µM
CN1CCN(C(=S)N(C(=O)c2ccco2)C2CCCCC2)CC1    > 100 µM

Query compound follows.
**Query** Let me know recorded TGI for `Cc1ccc(S(=O)(=O)N(CCN2C(=O)c3ccccc3C2=O)c2cc3c4c(c2)Oc2cc(N(CCN5C(=O)c6ccccc6C5=O)S(=O)(=O)c5ccc(C)cc5)cc5c2C4(C)c2c(cc(N(CCN4C(=O)c6ccccc6C4=O)S(=O)(=O)c4ccc(C)cc4)cc2O5)O3)cc1` , thanks.
**Result** > 100 µM

====

TGI listing for selected compounds.
# Test system: 786-0 renal
# EXPERIMENT_NOTES: NCI tumour cell line growth inhibition, 48 h
Where a SMILES comes first, the peptide text is derived from it. [ ]: non-standard residue; d: D form. Ac5c = NC1(C(=O)O)CCCC1

Example compounds with recorded TGI:
CCOP1(=O)C=CC(Cl)=C(C)C1 (centres undefined)    30.6 µM
CCOC(=O)/C=C\c1c(Cl)n(-c2ccccc2)c(=O)n(-c2ccccc2)c1=O    39.6 µM
O=C(O)c1ccccc1Sc1ccccc1[N+](=O)[O-]    > 100 µM
Cc1nc2sccn2c1C(=O)N/N=C1\SCC(=O)N1C    > 100 µM
Cc1cc2c3ccccc3nc2c2cc[nH]c(C)c12    3.06 µM

**Query** Let me know recorded TGI for `C=CCOC(=O)C[C@H](NC(=O)[C@H](Cc1ccc(O)cc1)NCC(F)(F)F)C(=O)OCC=C` , thanks.
**Result** > 100 µM

**Query** Let me know recorded TGI for CCOc1ccc2nc(NC(=O)C(=O)C(C#N)CC(C)(C)C=O)sc2c1 (centres undefined) , thanks.
**Result** > 100 µM

**Query** Let me know recorded TGI for `C=C1CCc2ccccc2C1=O` , thanks.
**Result** > 100 µM

**Query** Let me know recorded TGI for `CCOP(=O)(/C=C/n1ccc(N)nc1=O)OCC` , thanks.
**Result** > 100 µM

**Query** Let me know recorded TGI for `CC(=O)OCCOCn1c2c(c(=O)[nH]c1=O)CCC2` , thanks.
**Result** > 100 µM

**Query** Let me know recorded TGI for `NCCCN1CCN(c2ccccc2)CC1` , thanks.
**Result** > 100 µM

**Query** Let me know recorded TGI for COC(=O)C1(NC(=O)C(C)NC(=O)C(CCCCN)NC(=O)C(CC(C)C)NC(C)=O)CCCC1 (centres undefined) (Ac-LKA[Ac5c]-OMe; configuration not given here) , thanks.
**Result** > 100 µM

**Query** Let me know recorded TGI for `C/C=C1\C(=O)O[C@H]2C/C(C)=C/CC/C(C)=C/CC[C@@]3(C)O[C@@H]3C[C@@H]12` , thanks.
**Result** > 100 µM

**Query** Let me know recorded TGI for `ClC1=C(Cl)C(Cl)(Cl)SS1` , thanks.
**Result** > 6.03 µM

**Query** Let me know recorded TGI for Nc1nc(N)c2c(Cl)c(CNc3ccc(C(=O)NC(CC(=O)O)C(=O)O)cc3)ccc2n1 (centres undefined) , thanks.
**Result** > 100 µM

**Query** Let me know recorded TGI for `[Cl-].[Nd+3].[O-]/N=C(\c1ccccc1)c1ccccn1.[O-]/N=C(\c1ccccc1)c1ccccn1.[O-]/N=C(\c1ccccc1)c1ccccn1` , thanks.
**Result** 82.2 µM

**Query** Let me know recorded TGI for `Cc1nc2c(o1)C(=O)c1ccccc1C2=Nc1ccccc1` , thanks.
**Result** > 55.8 µM

**Query** Let me know recorded TGI for `C/C(=N\NC(=O)c1ccncc1)c1ccccc1Cl` , thanks.
**Result** > 100 µM

**Query** Let me know recorded TGI for `C[n+]1c2ccccc2c(Nc2ccc(N3CCCCC3)cc2)c2[nH]c3ccccc3c21` , thanks.
**Result** 1.69 µM

**Query** Let me know recorded TGI for `O=C(CCc1ccc(O)c(O)c1)OCCc1ccccc1` , thanks.
**Result** > 100 µM

**Query** Let me know recorded TGI for `Cc1cc([N+](=O)[O-])ccc1Sc1c2ccccc2nc2ccccc12` , thanks.
**Result** 55.5 µM

**Query** Let me know recorded TGI for COc1nc(Cl)nc(Cl)c1Cl (tested in a mixture with another compound) , thanks.
**Result** > 46.7 µM

**Query** Let me know recorded TGI for `CC(=O)NNc1nc(C)c(C(=O)/C=C/c2cccc([N+](=O)[O-])c2)s1` , thanks.
**Result** > 100 µM

**Query** Let me know recorded TGI for CC(C)CSCC1OC(n2cnc3c(N)nccc32)C(O)C1O (centres undefined) , thanks.
**Result** > 100 µM
